These entries and their values trace back to patent US20190367516A1.

Target: human M2 receptor (Homo sapiens)
Sequence (P08172 1-466): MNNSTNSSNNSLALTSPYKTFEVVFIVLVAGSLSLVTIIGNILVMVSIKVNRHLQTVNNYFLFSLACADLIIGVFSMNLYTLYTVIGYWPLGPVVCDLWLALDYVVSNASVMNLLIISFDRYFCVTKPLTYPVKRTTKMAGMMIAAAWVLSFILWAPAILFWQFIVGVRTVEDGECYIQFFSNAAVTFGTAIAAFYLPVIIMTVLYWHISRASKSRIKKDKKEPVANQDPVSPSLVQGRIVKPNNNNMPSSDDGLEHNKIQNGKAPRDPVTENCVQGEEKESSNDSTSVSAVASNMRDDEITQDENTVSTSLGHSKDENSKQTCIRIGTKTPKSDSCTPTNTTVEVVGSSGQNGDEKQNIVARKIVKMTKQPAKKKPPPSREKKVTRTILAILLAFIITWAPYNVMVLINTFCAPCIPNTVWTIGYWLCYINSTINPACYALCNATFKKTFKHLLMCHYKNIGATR
Settings: read-out: Efficiency, boosting of the acetylcholine effect at EC20 acetylcholine concentration; M2-GIRK1/4 reporter cells
outcomeMeasure: Emax (%)

INSERT INTO assay_data (compound, outcomemeasure, recordednumber) VALUES
  ('CC1(NC(=O)c2cn(-c3c(F)cc(F)cc3F)c3nc(N4CCNC4=O)ccc3c2=O)CC(F)(F)C1', 'Emax', 91.5),
  ('O=C(NC(c1ccccc1Cl)C(F)(F)F)c1cn(-c2c(F)cc(F)cc2F)c2nc(N3CCNC3=O)ccc2c1=O (single isomer, unassigned) [Example 564]', 'Emax', 89),
  ('C[C@H](NC(=O)c1cn(-c2c(F)cc(F)cc2F)c2nc(N3C[C@@H](O)CC3=O)ccc2c1=O)C1CC1', 'Emax', 100);

###

Target: human M2 receptor (Homo sapiens)
Sequence (P08172 1-466): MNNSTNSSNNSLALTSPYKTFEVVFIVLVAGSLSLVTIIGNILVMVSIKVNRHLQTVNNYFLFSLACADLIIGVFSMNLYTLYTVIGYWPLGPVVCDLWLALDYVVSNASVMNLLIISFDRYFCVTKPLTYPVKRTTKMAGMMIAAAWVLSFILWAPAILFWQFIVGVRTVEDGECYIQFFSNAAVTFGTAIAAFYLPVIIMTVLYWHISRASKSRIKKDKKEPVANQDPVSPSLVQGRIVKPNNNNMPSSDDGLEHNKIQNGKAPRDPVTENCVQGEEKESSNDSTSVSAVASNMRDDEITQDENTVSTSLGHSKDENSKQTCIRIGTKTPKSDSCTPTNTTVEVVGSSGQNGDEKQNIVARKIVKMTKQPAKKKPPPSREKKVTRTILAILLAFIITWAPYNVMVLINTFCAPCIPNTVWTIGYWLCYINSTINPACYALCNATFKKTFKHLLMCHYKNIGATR
Details: Receptor activity EC50, M2-GIRK1/4 activation test, acetylcholine at EC20; allosteric potency; in some cases mean values from two or more determinations
outcomeMeasure: EC50 (nM)

INSERT INTO measurements (compound, recordednumber) VALUES
  ('O=C(NC12CC(F)(C1)C2)c1cn(-c2c(F)cc(F)cc2F)c2nc(N3C[C@@H](O)CC3=O)ccc2c1=O', 100),
  ('CC(C)[C@H](NC(=O)c1cn(-c2ccc(F)cc2F)c2nc(N(C)C)ccc2c1=O)C(F)(F)F', 32),
  ('CC(C)CC(NC(=O)c1cn(-c2ccc(F)cc2F)c2nc(NCC(F)F)ccc2c1=O)C(F)(F)F (racemic)', 116),
  ('CC[C@H](NC(=O)c1cn(-c2c(F)cc(F)cc2Cl)c2nc(N3CCNC3=O)ccc2c1=O)C(F)(F)F', 10),
  ('CC(C)(NC(=O)c1cn(-c2ccc(F)cc2F)c2nc(N3CC[C@@H](OC(F)F)C3)ccc2c1=O)c1c(F)cccc1F', 113);

(a) CN(C)c1ccc2c(=O)c(C(=O)NCc3c(F)cccc3C(F)(F)F)cn(-c3ccc(F)cc3F)c2n1
(b) CC[C@@H](NC(=O)c1cn(-c2ccc(F)cc2F)c2nc(N3CCC(C)(OC)C3)ccc2c1=O)C(F)(F)F (mixture of isomers)
Asked: // returns a or b , whichever has the lower EC50 Respond using the label that marks the chosen record.
Given back: b
(b: 60 nM, a: 155 nM)
